target: Recombinant human ATX (Homo sapiens (Human), UniProt Q13822); assay: ATX inhibition assay (choline release, Amplex Red fluorescence); settings: ATX 10 nM, LPC 18:1 10 μM, 37° C., 20 min pre-incubation; mean of n≧2
pIC50: −log10 of the molar value.
OBSERVATION_TYPE: pIC50

In the examples that follow, each entry is paired with its recorded pIC50.
Cc1nnn(Cc2cc(C(F)(F)F)ccc2/C=C/C(=O)N2CCN(Cc3noc(C)n3)CC2)n1 [Example 93] : 8.00
Cc1nnn(Cc2cc(Cl)ccc2/C=C/C(=O)N2CCCN(c3ncccn3)CC2)n1 [Example 49.25] : 8.00

1 = Cc1nnn(Cc2cc(Cl)ccc2/C=C/C(=O)N2CCC(c3nnc(CC(F)(F)F)o3)CC2)n1 [Example 141]
2 = Cc1nnn(Cc2cc(Cl)ccc2/C=C/C(=O)N2CCC(c3coc(C)n3)CC2)n1 [Example 27]
3 = Cc1nnn(Cc2cc(C(F)(F)F)ccc2/C=C/C(=O)N2CCN(Cc3cnn(C)c3)C[C@H]2C)n1 [Example 70]
Query string: // smallest pIC50 at index 0, largest at the end Please respond with the labels ordered as the question requires.
Result string: 2, 1, 3
(2: 7.23, 1: 7.96, 3: 8.38)

A = Cc1nnn(Cc2cc(Cl)ccc2/C=C/C(=O)N2CCC(CCO)CC2)n1 [Example 49.6]
B = COCC1CCCN(C(=O)/C=C/c2ccc(Cl)cc2Cn2nnc(C)n2)C1 (stereo not shown) [Example 49.17]
Query string: # compare pIC50 for A vs B ; return the one with the smaller value Refer to your chosen entry by its label in the reply.
Result string: B

A = CCOc1c(NCCC2CN(C(=O)/C=C/c3ccc(Cl)cc3Cn3nnc(C)n3)CCO2)c(=O)c1=O (stereo not shown) [Example 150]
B = Cc1nnn(Cc2cc(C(F)(F)F)ccc2/C=C/C(=O)N2CCN(Cc3ccn(C)n3)CC2)n1 [Example 89]
Query string: Would you let me know which has the greater pIC50 value, A or B ? Refer to your chosen entry by its label in the reply.
Result string: B

P = Cc1cnn(CC2CCN(C(=O)/C=C/c3ccc(Cl)cc3Cn3nnc(C)n3)CC2)n1 [Example 120]
Q = Cc1noc(Cc2cc(Cl)ccc2/C=C/C(=O)N2CCC(Cc3nnc(C)o3)CC2)n1 [Example 21]
Query string: # compare pIC50 for P vs Q ; return the one with the smaller value Refer to your chosen entry by its label in the reply.
Result string: Q
(Q: 6.68, P: 8.09)

A = Cc1nnn(Cc2cc(Cl)ccc2/C=C/C(=O)N2CCN(c3ncccc3C#N)CC2)n1 [Example 49.28]
B = Cc1nnn(Cc2cc(Cl)ccc2/C=C/C(=O)N2CCC(Oc3ccccc3C(=O)N(C)C)CC2)n1 [Example 49.13]
Query string: # compare pIC50 for A vs B ; return the one with the smaller value Refer to your chosen entry by its label in the reply.
Result string: B

a = Cc1nnn(Cc2ccc(F)cc2/C=C/C(=O)N2CCC(Cc3nnc(C)o3)CC2)n1 [Example 79]
b = COC(=O)C1CCCCN1C(=O)/C=C/c1ccc(Cl)cc1Cn1nnc(C)n1 (stereo not shown) [Example 29]
c = Cc1nnn(Cc2cc(C(F)(F)F)ccc2CCC(=O)N2CCC(CCCCCc3c[nH]nn3)CC2)n1 [Example 153]
Query string: List items by pIC50 in falling order. Please respond with the labels ordered as the question requires.
Result string: c, b, a

---

molecular target: Recombinant human ATX (Homo sapiens (Human)); test: ATX inhibition assay (choline release, Amplex Red fluorescence); conditions: ATX 10 nM, LPC 18:1 10 μM, 37° C., 20 min pre-incubation; mean of n≧2
OBSERVATION_TYPE: IC50 (nM)

CC(=O)C1CCCN(C(=O)/C=C/c2ccc(Cl)cc2Cn2nnc(C)n2)C1 (stereo not shown) : 127
Cc1csc(C(O)C2CCN(C(=O)/C=C/c3ccc(Cl)cc3Cn3nnc(C)n3)CC2)n1 (stereo not shown) : 5.5
Cc1nnn(Cc2cc(Cl)ccc2COC(=O)N2CCC(c3ncc(C)o3)CC2)n1 : 70
Cc1nnn(Cc2cc(Cl)ccc2/C=C/C(=O)N2CCC(N3CCNC3=O)CC2)n1 : 129
Cc1nnn(Cc2cc(C(F)(F)F)ccc2/C=C/C(=O)N2CCCCC2c2noc(C)n2)n1 (single isomer, unassigned) [Example 38a] : 20

1 = CC(=O)N1CCCN(C(=O)/C=C/c2ccc(Cl)cc2Cn2nnc(C)n2)CC1
2 = Cc1nnn(Cc2cc(C(F)(F)F)ccc2/C=C/C(=O)N2CCN(C(=O)OC(C)(C)C)CC2)n1
3 = Cc1nnn(Cc2cc(C(F)(F)F)ccc2/C=C/C(=O)N2CCC(NCCCCc3c[nH]nn3)CC2)n1
Query string: List items by IC50 in falling order. Please respond with the labels ordered as the question requires.
Result string: 1, 3, 2
(1: 160 nM, 3: 13 nM, 2: 4.5 nM)

P = Cc1nnn(Cc2cc(C(F)(F)F)ccc2/C=C/C(=O)N2CCC[C@H]2CO)n1
Q = Cc1nnn(Cc2cc(F)ccc2/C=C/C(=O)N2CCC(Cc3nnc(C)o3)CC2)n1
R = Cc1nnn(Cc2ccc(Cl)cc2/C=C/C(=O)N2CCC(Cc3nnc(C)o3)CC2)n1
S = COC(=O)C1CCN(C(=O)/C=C/c2ccc(C(F)(F)F)cc2Cn2nnc(C)n2)CC1
Query string: // smallest IC50 at index 0, largest at the end Please respond with the labels ordered as the question requires.
Result string: S, P, Q, R

A = Cc1nnn(Cc2cc(Cl)ccc2/C=C/C(=O)N2CCC(O)C[C@@H]2C)n1 (single isomer, unassigned) [Example 50a]
B = Cc1nnn(Cc2cc(Cl)ccc2/C=C/C(=O)N2CCC(CCCc3nnc(C)o3)CC2)n1
C = CC(=O)NC1CCN(C(=O)/C=C/c2ccc(Cl)cc2Cn2nnc(C)n2)CC1
D = Cc1nnn(Cc2cc(Cl)ccc2/C=C/C(=O)N2CCN(Cc3cnc(N4CCOCC4)nc3)CC2)n1
E = Cc1cnc(Cc2cc(Cl)ccc2/C=C/C(=O)N2CCC(Cc3nnc(C)o3)CC2)o1
Query string: // smallest IC50 at index 0, largest at the end Please respond with the labels ordered as the question requires.
Result string: D, B, A, C, E

A = Cc1cnn(CCC2CCN(C(=O)/C=C/c3ccc(Cl)cc3Cn3nnc(C)n3)CC2)c1
B = Cc1nnn(Cc2cc(Cl)ccc2/C=C/C(=O)N2CC[C@@H](c3nnc(C)o3)C2)n1
Query string: # compare IC50 for A vs B ; return the one with the smaller value Refer to your chosen entry by its label in the reply.
Result string: A

A = Cc1nnn(Cc2cc(Cl)ccc2/C=C/C(=O)N2CCN(Cc3cc(-c4ccccc4)nn3C)CC2)n1
B = Cc1noc(Cc2cc(Cl)ccc2/C=C/C(=O)N2CCN(Cc3coc(C)n3)CC2)n1
C = COCC1CCN(C(=O)/C=C/c2ccc(C(F)(F)F)cc2Cn2nnc(C)n2)CC1
Query string: List items by IC50 in falling order. Please respond with the labels ordered as the question requires.
Result string: B, A, C

A = CCNC(=O)COC1CCCN(C(=O)/C=C/c2ccc(Cl)cc2Cn2nnc(C)n2)C1 (stereo not shown)
B = Cc1nnc(CC2CCN(C(=O)/C=C/c3ccc(Cl)cc3Cn3nccn3)CC2)o1
C = COc1ccc(CN(C)C2CCN(C(=O)/C=C/c3ccc(C(F)(F)F)cc3Cn3nnc(C)n3)CC2)cc1
D = Cc1nnn(Cc2cc(Cl)ccc2/C=C/C(=O)N2CCC(n3nnc(C)n3)CC2)n1
Query string: List items by IC50 in falling order. Please respond with the labels ordered as the question requires.
Result string: B, A, C, D
(B: 1440 nM, A: 110 nM, C: 47 nM, D: 24 nM)

P = Cc1nnn(Cc2cc(Cl)ccc2/C=C/C(=O)N2CCCCC2c2nc(C(C)C)no2)n1 (single isomer, unassigned) [Example 30b]
Q = Cc1ncn(C2CCN(C(=O)/C=C/c3ccc(C(F)(F)F)cc3Cn3nnc(C)n3)CC2)n1
R = CNC(=O)[C@@H]1CCCN1C(=O)/C=C/c1ccc(C(F)(F)F)cc1Cn1nnc(C)n1
Query string: List items by IC50 in falling order. Please respond with the labels ordered as the question requires.
Result string: P, R, Q

---

target: Recombinant human ATX (Homo sapiens (Human), UniProt Q13822); assay: ATX inhibition assay (choline release, Amplex Red fluorescence); conditions: ATX 10 nM, LPC 18:1 10 μM, 37° C., 20 min pre-incubation; mean of n≧2
OBSERVATION_TYPE: IC50 (nM)

COc1ccc(CN2CCN(C(=O)/C=C/c3ccc(Cl)cc3Cn3nnc(C)n3)[C@H](C)C2)nc1 : 3.5

P = Cc1nnn(Cc2cc(C(F)(F)F)ccc2/C=C/C(=O)N2CCCCC2C(F)(F)F)n1 (stereo not shown)
Q = Cc1noc(C2CCCCN2C(=O)/C=C/c2ccc(C(F)(F)F)cc2Cn2nnc(C)n2)n1 (single isomer, unassigned) [Example 5b]
R = Cc1nnn(Cc2cc(Cl)ccc2/C=C/C(=O)N2CCC(OCC(=O)N3CCCCC3)CC2)n1
Query string: // smallest IC50 at index 0, largest at the end Please respond with the labels ordered as the question requires.
Result string: R, P, Q
(R: 24 nM, P: 35 nM, Q: 120 nM)

I = Cc1noc(CC2CCN(C(=O)/C=C/c3ccc(C(F)(F)F)cc3Cn3nnc(C)n3)CC2)n1
II = Cc1noc(CN2CCN(C(=O)/C=C/c3ccc(C(F)(F)F)cc3Cn3nnc(C)n3)CC2)n1
III = Cc1nnn(Cc2cc(C(F)(F)F)ccc2/C=C/C(=O)N2CCN(Cc3coc(C)n3)CC2)n1
Query string: List items by IC50 in falling order. Please respond with the labels ordered as the question requires.
Result string: II, I, III
(II: 16 nM, I: 8.8 nM, III: 5.5 nM)

A = Cc1nnn(Cc2cc(Cl)ccc2/C=C/C(=O)N2CCC(n3ncnc3C)CC2)n1
B = COC(=O)C1SCCN1C(=O)/C=C/c1ccc(Cl)cc1Cn1nnc(C)n1 (stereo not shown)
C = Cc1nnn(Cc2cc(Cl)ccc2/C=C/C(=O)N2CCC(C(O)c3ccc(Cl)cc3)CC2)n1 (single isomer, unassigned) [Example 66a]
D = Cc1nnn(Cc2cc(Cl)ccc2/C=C/C(=O)N2CCCC(c3nncn3C)C2)n1 (stereo not shown)
Query string: // smallest IC50 at index 0, largest at the end Please respond with the labels ordered as the question requires.
Result string: C, A, B, D
(C: 4.2 nM, A: 73 nM, B: 110 nM, D: 1060 nM)

A = Cc1nnn(Cc2cc(Cl)ccc2/C=C/C(=O)N2CCCC[C@H]2C)n1
B = Cc1nnn(Cc2cc(Cl)ccc2/C=C/C(=O)N2CCC(C(O)c3ccc(Cl)cc3)CC2)n1 (single isomer, unassigned) [Example 66b]
Query string: Would you let me know which has the greater IC50 value, A or B ? Refer to your chosen entry by its label in the reply.
Result string: A
(A: 85 nM, B: 4.6 nM)
